From: ChEMBL document CHEMBL3988442

study target: Arginase-2, mitochondrial (Homo sapiens)
Sequence (whole entry): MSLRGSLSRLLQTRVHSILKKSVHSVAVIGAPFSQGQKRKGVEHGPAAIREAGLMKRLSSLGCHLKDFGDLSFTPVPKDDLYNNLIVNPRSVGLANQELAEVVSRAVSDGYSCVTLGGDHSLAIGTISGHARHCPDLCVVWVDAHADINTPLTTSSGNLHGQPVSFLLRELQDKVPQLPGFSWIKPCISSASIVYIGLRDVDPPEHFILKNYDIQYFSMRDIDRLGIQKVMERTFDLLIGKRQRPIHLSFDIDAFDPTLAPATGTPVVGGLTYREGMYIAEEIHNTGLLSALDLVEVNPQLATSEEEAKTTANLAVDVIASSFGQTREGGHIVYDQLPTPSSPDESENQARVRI
procedure text: in vitro enzyme assay to detect the production of urea directly proportional to the activity of Arginase II
Format: functional
Set-up: scale not given: in the data most compounds retested in dose-response had high values
condition details: 33.3 µM
readout label: Percent Effect
Write the numeric value and append its unit.

Check out these entries, answers already filled in.
O=C(CN1CCC(c2ccnn2CCO)CC1)NCC1CC1
0.76%
Cc1cnn(C2CCCN(C(=O)c3cnc4ccccc4n3)C2)c1 (stereo not drawn)
-1.6%

Percent Effect value, target or system Arginase-2, mitochondrial (Homo sapiens), for O=C(O)[C@]12CCCN(Cc3ccncc3)[C@@H]1CCN(c1cnccn1)C2 : -0.521%

Percent Effect value, target or system Arginase-2, mitochondrial (Homo sapiens), for CSCc1cccc(S(=O)(=O)NCCCn2ccnc2)c1 : -6.9%

Percent Effect value, target or system Arginase-2, mitochondrial (Homo sapiens), for CS(=O)(=O)NCC1CCCN(C(=O)Nc2ccccc2Cl)C1 (stereo not drawn) : -5.92%

###

Documented Percent Effect across a set of molecules
study target: Chromo domain-containing protein 1 (Saccharomyces cerevisiae (strain ATCC 204508 / S288c) (Baker's yeast)) (UniProt P32657)
Sequence (P32657 whole entry, the tested form may be a part): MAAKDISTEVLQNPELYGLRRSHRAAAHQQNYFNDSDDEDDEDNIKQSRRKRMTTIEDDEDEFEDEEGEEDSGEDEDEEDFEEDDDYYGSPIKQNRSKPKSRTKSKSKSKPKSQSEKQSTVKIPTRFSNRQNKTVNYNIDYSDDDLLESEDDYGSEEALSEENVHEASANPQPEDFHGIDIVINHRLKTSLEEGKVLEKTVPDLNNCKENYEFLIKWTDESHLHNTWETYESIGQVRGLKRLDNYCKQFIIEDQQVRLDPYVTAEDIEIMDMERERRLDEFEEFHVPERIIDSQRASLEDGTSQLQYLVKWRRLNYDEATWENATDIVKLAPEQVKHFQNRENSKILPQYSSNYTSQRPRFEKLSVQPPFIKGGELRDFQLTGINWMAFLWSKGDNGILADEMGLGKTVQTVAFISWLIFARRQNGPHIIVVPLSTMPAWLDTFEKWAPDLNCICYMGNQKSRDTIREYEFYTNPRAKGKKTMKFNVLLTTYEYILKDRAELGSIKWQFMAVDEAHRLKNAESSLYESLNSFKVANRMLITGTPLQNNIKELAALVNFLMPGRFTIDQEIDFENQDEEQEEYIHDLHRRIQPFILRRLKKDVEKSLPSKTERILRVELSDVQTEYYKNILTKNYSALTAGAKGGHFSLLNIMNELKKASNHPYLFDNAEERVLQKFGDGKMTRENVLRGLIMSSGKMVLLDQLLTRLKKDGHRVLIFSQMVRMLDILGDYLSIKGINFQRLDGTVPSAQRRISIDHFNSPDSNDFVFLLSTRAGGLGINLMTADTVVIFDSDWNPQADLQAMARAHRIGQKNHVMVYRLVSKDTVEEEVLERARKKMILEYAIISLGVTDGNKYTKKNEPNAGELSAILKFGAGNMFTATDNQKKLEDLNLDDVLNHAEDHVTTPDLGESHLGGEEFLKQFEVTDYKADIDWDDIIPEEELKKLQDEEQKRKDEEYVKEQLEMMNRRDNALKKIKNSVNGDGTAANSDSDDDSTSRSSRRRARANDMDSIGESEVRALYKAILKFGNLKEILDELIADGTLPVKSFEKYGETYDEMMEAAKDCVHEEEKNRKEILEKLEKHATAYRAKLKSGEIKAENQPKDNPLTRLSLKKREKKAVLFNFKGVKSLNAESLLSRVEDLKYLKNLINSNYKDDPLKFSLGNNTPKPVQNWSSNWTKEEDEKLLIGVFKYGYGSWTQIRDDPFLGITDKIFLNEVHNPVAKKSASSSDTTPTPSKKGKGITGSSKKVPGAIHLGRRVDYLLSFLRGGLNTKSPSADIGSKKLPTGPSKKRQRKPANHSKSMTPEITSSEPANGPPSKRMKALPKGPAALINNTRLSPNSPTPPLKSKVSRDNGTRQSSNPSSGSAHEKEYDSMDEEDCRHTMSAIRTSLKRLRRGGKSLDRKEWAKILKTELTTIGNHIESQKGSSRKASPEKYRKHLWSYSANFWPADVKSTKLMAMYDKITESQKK
procedure text: ScCHD-1 Enzyme Inhibition Assay
Assay type: functional
Parameters: scale not given: in the data most compounds retested in dose-response had high values
condition details: 30 µM
The answer is to be given in %; state only the numeric part.

Check out these entries, answers already filled in.
N#Cc1ccnc(N2CCN(C(=O)Cc3ccc4c(c3)CCO4)CC2)c1
-11.9
Cc1nc(-c2ccsc2)ccc1C(=O)NCCN1CCOCC1
-8.61
CC1CN(CC2CCCCC2)CCN1c1ccc2nncn2n1 (stereo not drawn)
95.7
Cc1nccn1C1CCCN(C(=O)c2ccc3c(c2)COC3)C1 (stereo not drawn)
-0.0787

Documented Percent Effect of CC(C)N(C)C(=O)C1=NOC2(CCN(C(=O)c3ccccn3)C2)C1 (stereo not drawn) : 2.42

Documented Percent Effect of O=C(O)c1cc(-c2cccnc2)cc(S(=O)(=O)N2CCCCCC2)c1 : -1.87

Documented Percent Effect of CCOc1ccc(CN2CCN(C(=O)c3ccc(C)n3C)CC2)cc1 : -10.5

Documented Percent Effect of COc1ncccc1C(=O)N1CCC(CNC(C)=O)CC1 : -5.96

Documented Percent Effect of Cc1cnc(CN2CCC(N(C)Cc3nnc(C4CC4)n3C)C2)cn1 (stereo not drawn) : -2.52

Documented Percent Effect of O=C1CCc2cc(-c3csc(CCN4CCCC4=O)n3)ccc2N1 : -7.82

Documented Percent Effect of CCn1nc(C)c2nc(C(C)C)nc(NCCOC)c21 : -9.33

Documented Percent Effect of COc1ccccc1CC(=O)NCCCN1CCCC1C(=O)N(C)C (stereo not drawn) : -6.6

Documented Percent Effect of CCN(CC)c1ccc(NS(=O)(=O)c2cncc(F)c2)cn1 : -6.32

Documented Percent Effect of Cc1ccc(CN2CCC(c3nnc(CN4CCCCC4)n3C)CC2)o1 : 3.06

Documented Percent Effect of CC(C)c1csc(C2CCCN(C(=O)Cn3ccccc3=O)C2)n1 (stereo not drawn) : -9.15
